The reported measurements were obtained from paper PMC8835733.

- TESTED ON: (UniProt Z9G3U5DLY1)
- ASSAY DETAILS: Agonist-evoked cAMP production in PaOctβ2R-HA-expressing flpTM cells (CNG channel / Fluo-4 Ca2+ imaging)
- Assay type: cell-based, Periplaneta americana
- REPORTED CONDITIONS: mean of n = 5 experiments; 100 µM IBMX; flpTM + PaOctβ2R-HA cells; read-out: EC50, mean value for half-maximal stimulation of PaOctβ2R-HA
- From the text: These insect receptors are preferentially activated by octopamine and to a certain extent by tyramine as well. […] Increasing [cAMP]i cause opening of the CNG channels and influx of extracellular Ca^2+ which was detected by the Ca^2+-sensitive dye FLUO-4. […] A stably transfected cell line was established to examine PaOctβ2R-HA receptor activity by Ca^2+ imaging. […] Changes in [Ca^2+]i were monitored with the Ca^2+-sensitive fluorescent dye Fluo-4. […] Fluorescence emission was detected at 520 nm. […]
pEC50: −log10 of the molar value.
REPORTED ENDPOINT: pEC50

COMPOUND | REPORTED ENDPOINT | VALUE REPORTED
NCC(O)c1ccc(O)cc1 (centres unmarked) | pEC50 | 9.33
NCCc1ccc(O)cc1 | pEC50 | 7.37
